Parameter: whole-cell filipin (z-score). Scope: all listed entries.
# Tested on: A431
# testName: whole-cell filipin (free cholesterol) integrated intensity, Z-score; higher = more cholesterol staining
# settings: compound concentration in added solution (µM; 5 µl added to 20 µl cells): 10; 18 h
Counter-ions that a name gives are not always drawn.
Write no unit; give the number alone.

Consider the compound shown here: Nc1ccc(S(N)(=O)=O)cc1 [Sulfanilamide] What is its recorded whole-cell filipin (z-score)?
-0.27

Consider the compound shown here: C[C@@H]1C[C@H]2[C@@H]3CCC4=CC(=O)C=C[C@]4(C)[C@@]3(Cl)[C@@H](O)C[C@]2(C)[C@@]1(OC(=O)c1ccco1)C(=O)CCl [Mometasone furoate] What is its recorded whole-cell filipin (z-score)?
-0.317

Consider the compound shown here: COc1cc2nc(N(C)CCCNC(=O)C3CCCO3)nc(N)c2cc1OC (configuration not stated) [Alfuzosin hydrochloride] What is its recorded whole-cell filipin (z-score)?
-0.35

Consider the compound shown here: OC(CCN1CCCCC1)(c1ccccc1)c1ccccc1 [Pridinol methanesulfonate salt] What is its recorded whole-cell filipin (z-score)?
-0.378

###

Parameter: whole-cell filipin (z-score). Scope: all listed entries.
# System: HeLa MZ
# testName: whole-cell filipin (free cholesterol) integrated intensity, Z-score; higher = more cholesterol staining
# settings: compound concentration in added solution (µM; 5 µl added to 20 µl cells): 10; 18 h
Counter-ions that a name gives are not always drawn.
Write no unit; give the number alone.

See these solved cases before continuing.
Consider the compound shown here: CN(C)c1nc(N(C)C)nc(N(C)C)n1 [Altretamine] What is its recorded whole-cell filipin (z-score)?
-0.6

Consider the compound shown here: O=C1c2ccccc2S(=O)(=O)N1CCCCN1CCN(c2ncccn2)CC1 [Ipsapirone] What is its recorded whole-cell filipin (z-score)?
-0.262

***
Consider the compound shown here: Nc1ccc(/N=N/c2ccccc2)c(N)n1 [Phenazopyridine hydrochloride] What is its recorded whole-cell filipin (z-score)?
-0.724

Consider the compound shown here: Cc1cc(C)nc(NS(=O)(=O)c2ccc(N)cc2)n1 [Sulfamethazine sodium salt] What is its recorded whole-cell filipin (z-score)?
-0.158

Consider the compound shown here: C[C@](N)(Cc1ccc(O)c(O)c1)C(=O)O [Methyldopa (L,-)] What is its recorded whole-cell filipin (z-score)?
0.0391

Consider the compound shown here: CCN1CCCC1CNC(=O)c1cc(S(N)(=O)=O)ccc1OC (stereo not given) [Sulpiride] What is its recorded whole-cell filipin (z-score)?
-0.434

Consider the compound shown here: Cc1cccc(C)c1OCC(C)N (stereo not given) [Mexiletine hydrochloride] What is its recorded whole-cell filipin (z-score)?
-0.901

Consider the compound shown here: CCc1oc2ccccc2c1C(=O)c1cc(Br)c(O)c(Br)c1 [Benzbromarone] What is its recorded whole-cell filipin (z-score)?
-0.296

Consider the compound shown here: C[N+]1(C)CCC(OC(=O)C(O)(c2ccccc2)C2CCCC2)C1 (stereo not given) [Glycopyrrolate] What is its recorded whole-cell filipin (z-score)?
-0.075

Consider the compound shown here: Cc1ncc(CO)c(CO)c1O [Pyridoxine hydrochloride] What is its recorded whole-cell filipin (z-score)?
-0.528

Consider the compound shown here: Cc1c(O)c(=O)n(-c2ccccc2)n1C [Antipyrine, 4-hydroxy] What is its recorded whole-cell filipin (z-score)?
0.114

Consider the compound shown here: Cn1c(=O)c2[nH]cnc2n(C)c1=O [Aminophylline] What is its recorded whole-cell filipin (z-score)?
0.324

Consider the compound shown here: CN[C@H](CC(C)C)C(=O)N[C@H]1C(=O)N[C@@H](CC(N)=O)C(=O)N[C@H]2C(=O)N[C@H]3C(=O)N[C@H](C(=O)N[C@H](C(=O)O)c4cc(O)cc(O)c4-c4cc3ccc4O)[C@H](O)c3ccc(c(Cl)c3)Oc3cc2cc(c3O[C@@H]2O[C@H](CO)[C@@H](O)[C@H](O)[C@H]2O[C@H]2C[C@](C)(N)[C@H](O)[C@H](C)O2)Oc2ccc(cc2Cl)[C@H]1O [Vancomycin hydrochloride] What is its recorded whole-cell filipin (z-score)?
-0.041

Consider the compound shown here: CC1(C)O[C@@H]2C[C@H]3[C@@H]4C[C@H](F)C5=CC(=O)C=C[C@]5(C)[C@@]4(F)[C@@H](O)C[C@]3(C)[C@]2(C(=O)CO)O1 [Fluocinolone acetonide] What is its recorded whole-cell filipin (z-score)?
0.13

Consider the compound shown here: CN(C)CCN(Cc1ccc(Cl)cc1)c1ccccn1 [Chloropyramine hydrochloride] What is its recorded whole-cell filipin (z-score)?
5.51

Consider the compound shown here: O=C1NCN(c2ccccc2)C12CCN(CCCC(c1ccc(F)cc1)c1ccc(F)cc1)CC2 [Fluspirilen] What is its recorded whole-cell filipin (z-score)?
1.64

Consider the compound shown here: CC(=O)NS(=O)(=O)c1ccc(N)cc1 [Sulfacetamide sodic hydrate] What is its recorded whole-cell filipin (z-score)?
-0.53

Consider the compound shown here: c1ccc2c(c1)CCCC2C1=NCCN1 (stereo not given) [Tetrahydrozoline hydrochloride] What is its recorded whole-cell filipin (z-score)?
0.315

###

# Test system: A431
# testName: filipin (cholesterol) integrated intensity within LBPA endosomes, Z-score; higher = more cholesterol in LBPA endosomes
# settings: compound concentration in added solution (µM; 5 µl added to 20 µl cells): 10; 18 h
Counter-ions that a name gives are not always drawn.
Parameter threshold = -0.2. Response is Condition met when filipin (z-score) meets or exceeds it, else Condition not met.

Decide: filipin (z-score) of CC(=O)OCC(=O)[C@@]1(O)CC[C@H]2[C@@H]3CCC4=CC(=O)C=C[C@]4(C)[C@@]3(F)[C@@H](O)C[C@@]21C [Isoflupredone acetate] >= -0.2?
Condition met

Decide: filipin (z-score) of CCC(=O)O[C@]1(C(=O)SCF)[C@H](C)C[C@H]2[C@@H]3C[C@H](F)C4=CC(=O)C=C[C@]4(C)[C@@]3(F)[C@@H](O)C[C@@]21C [Fluticasone propionate] >= -0.2?
Condition met

Decide: filipin (z-score) of `O=C(CCCCCCC(=O)Nc1ccccc1)NO` >= -0.2?
Condition not met

Decide: filipin (z-score) of NCCc1cc[nH]n1 [Betazole hydrochloride] >= -0.2?
Condition not met

Decide: filipin (z-score) of C=CCc1ccccc1OCC(O)CNC(C)C (stereo not given) [Alprenolol hydrochloride] >= -0.2?
Condition not met

###

# Test system: A431
# testName: filipin (cholesterol) integrated intensity within LBPA endosomes, Z-score; higher = more cholesterol in LBPA endosomes
# settings: compound concentration in added solution (µM; 5 µl added to 20 µl cells): 10; 18 h
Counter-ions that a name gives are not always drawn.
measureName: filipin (z-score)
Write no unit; give the number alone.

Identify the measured filipin (z-score) of `CCC1(c2ccccc2)C(=O)NCNC1=O` for A431.
-0.509

Identify the measured filipin (z-score) of CN(C)CCOC(=O)C(c1ccccc1)C1(O)CCCC1 (stereo not drawn) [Cyclopentolate hydrochloride] for A431.
-0.39

***
Identify the measured filipin (z-score) of `CC(=O)CCCCn1c(=O)c2c(ncn2C)n(C)c1=O` for A431.
-0.513

###

Parameter: whole-cell filipin (z-score). Scope: all listed entries.
# Test system: HeLa MZ
# testName: whole-cell filipin (free cholesterol) integrated intensity, Z-score; higher = more cholesterol staining
# settings: compound concentration in added solution (µM; 5 µl added to 20 µl cells): 10; 18 h
Structures can show the parent of a compound that is named as a salt.
Write no unit; give the number alone.

Consider the molecule shown here: CC(=O)NCCCS(=O)(=O)O [Acamprosate calcium] What is its recorded whole-cell filipin (z-score)?
-0.465

***
Consider the molecule shown here: O=C1NCC2(CCN(CCc3ccccc3)CC2)O1 [Fenspiride hydrochloride] What is its recorded whole-cell filipin (z-score)?
-0.91

Consider the molecule shown here: `NC(=O)c1ncn([C@@H]2O[C@H](CO)[C@@H](O)[C@H]2O)n1` What is its recorded whole-cell filipin (z-score)?
-0.839

###

Parameter: LBPA endosome anti-LBPA integrated intensity (z-score). Scope: all listed entries.
# Tested on: HeLa MZ
# testName: LBPA endosome anti-LBPA integrated intensity (sum per cell), Z-score; higher = more LBPA staining
# settings: compound concentration in added solution (µM; 5 µl added to 20 µl cells): 10; 18 h

Identify the measured LBPA endosome anti-LBPA integrated intensity (z-score) of O=C1C(CC[S+]([O-])c2ccccc2)C(=O)N(c2ccccc2)N1c1ccccc1 (centres undefined) for HeLa MZ.
0.025

***
Identify the measured LBPA endosome anti-LBPA integrated intensity (z-score) of `CCCCC1(COC(=O)CCC(=O)O)C(=O)N(c2ccccc2)N(c2ccccc2)C1=O` for HeLa MZ.
0.271

###

# System: A431
# testName: whole-cell filipin (free cholesterol) integrated intensity, Z-score; higher = more cholesterol staining
# settings: compound concentration in added solution (µM; 5 µl added to 20 µl cells): 10; 18 h
Structures can show the parent of a compound that is named as a salt.
Parameter: whole-cell filipin (z-score). Scope: all listed entries.
Write no unit; give the number alone.

Identify the measured whole-cell filipin (z-score) of CO[C@@]1(NC(=O)Cc2cccs2)C(=O)N2C(C(=O)O)=C(COC(N)=O)CS[C@@H]21 [Cefoxitin sodium salt] for A431.
-0.426

Switching to the query record.
Identify the measured whole-cell filipin (z-score) of CN(C)CCCN1c2ccccc2CCc2ccccc21 [Imipramine hydrochloride] for A431.
0.885
